Tested on: ACHN renal
Experiment: NCI-60 one-dose screen, 48 h (100 = growth as untreated, 0 = no growth, -100 = all killed)
Conditions: 10 µM unless noted
Procedure: Growth inhibition of the ACHN human tumor cell line is measured as a screen for anti-cancer activity. Cells are grown in 96 well plates and exposed to the test compound for 48 hours. Compounds are tested at a single concentration, which is 10^-5 M for most compounds. The reported endpoint is percent growth (GI% or GIPRCNT), where numbers from 0 - 100% represent growth inhibition, and numbers from -100% - 0 represent cell death. For example, a value of 40 represents 60% growth inhibition. […]
Compounds without any hit were thinned out: in the full panel of roughly 83,000, 20% have a hit.
measure: growth (%)
Return type: number; implicit unit %.

COc1ccc(-c2nc(SCCC(C)C)nc(N/N=C\c3cccc(Cl)c3)c2C#N)cc1 = 17.9
COc1cccc(-c2nc3sccn3c2-c2ccnc(NCCNS(=O)(=O)c3cccc(F)c3)c2)c1 = 20.5

The measured growth associated with `COc1cc(/C=C/C(=O)c2ccc(Nc3nc(Nc4ccc(F)cc4)nc(Nc4ccc(Cl)cc4)n3)cc2)cc(OC)c1OC` reads 78.1

The measured growth associated with COC(=O)c1ccc(C2Nc3ccc(S(=O)(=O)Nc4ccc(C)c(C)c4)cc3C3OCCC23)cc1 (stereo unspecified) reads 89.4

The measured growth associated with CCSC1=NC2C(N(CC)C(=O)N2CC)N1/N=C/C=C/c1ccccc1[N+](=O)[O-] (stereo unspecified) reads 25.1

The measured growth associated with `COC(=O)c1ccc(CSc2nnc(-c3c(C)nc4ccc(C)cn34)o2)cc1` reads 98.3

----------
Test system: 786-0 renal
Assay: NCI-60 one-dose screen, 48 h
Conditions: 10 µM unless noted
Experimental: Cells are grown in 96 well plates and exposed to the test compound for 48 hours. Compounds are tested at a single concentration, which is 10^-5 M for most compounds. The reported endpoint is percent growth (GI% or GIPRCNT), where numbers from 0 - 100% represent growth inhibition, and numbers from -100% - 0 represent cell death. For example, a value of 40 represents 60% growth inhibition. A value of 0 means no net growth occurred over the course of the experiment. […]
Compounds without any hit were thinned out: in the full panel of roughly 83,000, 20% have a hit. The source made the active and inactive calls. The calls were made as follows: active = growth percent below 10; inactive = the rest.
Please answer using one outcome listed in yes (1) for active, no (0) for inactive

Consider the worked cases shown below.
Cc1cc(=O)oc2c1ccc1oc(C#N)c(C)c12 = no (0)
COc1cccc(-c2nn(-c3ccccc3)cc2-c2ccnc(NCCCNC(=O)Nc3ccc(Cl)c(Cl)c3)c2)c1 = yes (1)
Cc1nn(-c2ccccc2)c2nc3c(c(-c4ccc(Cl)cc4)c12)CNC1(CCSCC1)N3 = no (0)

Problem: Outcome logged for `O=c1cc(-c2ccc(Cl)cc2)[nH]c2ccccc12` in this assay:
Solution: no (0)

----------
Test system: UO-31 renal
Experiment: NCI-60 one-dose screen, 48 h
Conditions: 10 µM unless noted
Compounds without any hit were thinned out: in the full panel of roughly 83,000, 20% have a hit. The source made the active and inactive calls. Rule for the calls: active = growth percent below 10; inactive = the rest.
Please answer using one outcome listed in active, inactive

Consider the worked cases shown below.
O=C1c2cccc(NCCN=Cc3cc([N+](=O)[O-])ccc3O)c2C(=O)c2c(NCCN=Cc3cc([N+](=O)[O-])ccc3O)cccc21 = inactive
COC(=O)c1c2c(c(C)[n+]([O-])c1C)C(=O)C(NCc1ccc(F)c(Cl)c1)=CC2=O = inactive

Problem: Outcome logged for `COc1cc(/C=N/NC(=O)Cn2c(C(C)C)nc3ccccc32)ccc1O` in this assay:
Solution: inactive

Problem: Outcome logged for COc1cc(C2CC(=O)Nc3c2c(C)nn3-c2nc3ccccc3[nH]2)c(OC)c2c1OCO2 (stereo not drawn) in this assay:
Solution: inactive

Problem: Outcome logged for COC(=O)[C@]12CC[C@@H](C)[C@H](C)[C@@H]1C1=CC[C@@H]3[C@@]4(C)C(C=O)=C[C@@](C)(COS(C)(=O)=O)C4[C@H](O)C[C@@]3(C)[C@]1(C)CC2 (stereo partly drawn) in this assay:
Solution: active

Problem: Outcome logged for `COc1ccc(/C=C/c2c(C(=O)/C=C/c3cccs3)c(C)nc3ccccc23)cc1` in this assay:
Solution: inactive

Problem: Outcome logged for `N#Cc1nc(C#N)c(Sc2ccccc2)c(Sc2ccccc2)c1Sc1ccccc1` in this assay:
Solution: active

Problem: Outcome logged for `COc1ccc(NC(=O)CSc2nnc(-c3cc(-c4ccccc4)nc4ccccc34)n2-c2ccccc2)cc1` in this assay:
Solution: inactive
